Target: UniProtKB P09871
Experiment: Human C1s enzyme assay
Assay type: biochemical
Settings: Human complement C1s enzyme 1.16 nM, substrate Z-L-Lys-SBzl 100 μM, assay of Example 3; read-out: IC50 (Stars)
Here, each record is paired with measured IC50 data.

Example cases with answers are listed next.
C[C@@H](NC(=O)[C@@H]1C[C@@H](S(C)(=O)=O)CN1C(=O)CNC(=O)c1cccc(-c2ccc(F)cc2)c1)c1cc(C(=N)N)cs1 [Compound 334]	< 100 nM
COC[C@H]1C[C@@H](C(=O)N[C@H](C)c2cc(C(=N)N)cs2)N(C(=O)CNC(=O)c2ccc3oc4ccccc4c3c2)C1 (relative stereo) [Compound 219]	< 100 nM
NCCC(=O)Nc1csc(CNC(=O)[C@@H]2CC3(CN2C(=O)CNC(=O)c2ccc(Oc4ccc(F)cc4)cc2)OCCO3)c1 [Compound 311]	> 1000 nM
C[C@@]12C[C@@H]1N(C(=O)CNC(=O)c1ccc3c(c1)-c1ccccc1C3(F)F)[C@H](C(=O)Nc1cc(C(=N)N)cs1)C2 [Compound 259]	> 1000 nM
C[C@@H](NC(=O)[C@@H]1C[C@@H](OC(F)F)CN1C(=O)CNC(=O)c1ccc2c(c1)oc1ccccc12)c1cc(C(=N)N)cs1 [Compound 361]	< 100 nM
CC(C)S(=O)(=O)c1ccc(-c2ccc(C(=O)NCC(=O)N3CC4(C[C@H]3C(=O)NCc3cc(C(=N)N)cs3)OCCO4)cc2)cc1 [Compound 216]	< 100 nM

Short answer for C[C@@H](NC(=O)[C@@H]1C[C@H](c2ccncc2)CN1C(=O)CNC(=O)c1ccc2c(c1)-c1ccccc1C2(F)F)c1cc(C(=N)N)cs1 [Compound 370] : IC50 was < 100 nM

Record summary for CC1c2ccccc2-c2ccc(C(=O)NCC(=O)N3C[C@@](F)(CF)C[C@H]3C(=O)N[C@H](C)c3cc(C(=N)N)cs3)cc21 (stereo partly shown) [Compound 371] : reported IC50 = < 100 nM

GET /value?item= C[C@@H](NC(=O)[C@@H]1CC2(CN1C(=O)CNC(=O)c1ncc(-c3ccccc3)cc1F)OCCO2)c1cc(C(=N)N)cs1 [Compound 347] &field=IC50 returns < 100 nM

Value of IC50 reported for the compound N=C(N)c1csc(CNC(=O)[C@@H]2CC3(CN2C(=O)CNC(=O)c2ccc(-c4ccc(F)cc4)o2)OCCO3)c1 [Compound 299] is < 100 nM

----------
Molecular target: Human complement C1s enzyme (Homo sapiens (Human), UniProt P09871)
Sequence (P09871 438-688 limits assumed): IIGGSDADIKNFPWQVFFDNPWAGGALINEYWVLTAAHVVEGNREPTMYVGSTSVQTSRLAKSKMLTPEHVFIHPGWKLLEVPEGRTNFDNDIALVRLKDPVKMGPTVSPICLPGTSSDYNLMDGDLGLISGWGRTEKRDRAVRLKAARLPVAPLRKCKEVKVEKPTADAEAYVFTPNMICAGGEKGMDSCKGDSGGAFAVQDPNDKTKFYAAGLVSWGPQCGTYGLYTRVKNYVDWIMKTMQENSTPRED
Sequence (P09871 16-437 partner limits assumed): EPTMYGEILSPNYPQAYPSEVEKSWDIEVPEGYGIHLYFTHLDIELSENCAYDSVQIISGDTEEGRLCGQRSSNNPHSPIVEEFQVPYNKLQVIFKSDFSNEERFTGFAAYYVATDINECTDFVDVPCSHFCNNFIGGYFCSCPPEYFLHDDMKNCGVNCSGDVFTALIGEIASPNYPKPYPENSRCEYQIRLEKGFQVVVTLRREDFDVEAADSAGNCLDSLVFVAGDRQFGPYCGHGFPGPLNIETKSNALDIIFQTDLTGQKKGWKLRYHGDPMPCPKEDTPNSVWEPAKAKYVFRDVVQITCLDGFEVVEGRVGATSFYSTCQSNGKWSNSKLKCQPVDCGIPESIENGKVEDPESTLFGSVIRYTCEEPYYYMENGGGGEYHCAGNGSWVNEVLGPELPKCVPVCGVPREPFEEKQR
Experiment: Human C1s enzyme assay
Assay type: biochemical
Conditions: Human C1s enzyme assay of Example 3; read-out: IC50 (Stars)
# Lookup of reported IC50 keyed by entry

See these solved cases before continuing.
C[C@@H](NC(=O)[C@@H]1CC2(CN1C(=O)CNC(=O)c1ccc3c(c1)-c1ccccc1C3(F)F)OCCO2)c1cc(C(=N)NO)cs1	< 0.1 µM
C[C@@H](NC(=O)[C@@H]1CC2(CN1C(=O)CNC(=O)c1ccc(-c3ccccc3)cc1)OCCO2)c1cc(C(=N)N)cs1	< 0.1 µM
C[C@@H](NC(=O)[C@@H]1CC2(CN1C(=O)CNC(=O)c1ccc3c(c1)-c1ccccc1C3(F)F)OCCO2)c1cc(-c2nccs2)cs1	> 1 µM
C[C@@H](NC(=O)[C@@H]1C[C@H](c2nccs2)CN1C(=O)CNC(=O)c1ccc2c(c1)-c1ccccc1C2(F)F)c1cc(C(=N)N)cs1	< 0.1 µM

Kindly review the next compound as well.
Record C[C@@H](NC(=O)[C@@H]1CC2(CN1C(=O)CNC(=O)c1ccc3c(c1)-c1ccccc1C3(F)F)OCCO2)c1cc(-c2cn[nH]n2)cs1 has Human complement C1s enzyme (Homo sapiens (Human), UniProt P09871) IC50 equal to > 1 µM

----------
Molecular target: Human complement C1s enzyme (Homo sapiens (Human), UniProt P09871)
Assay: Human C1s enzyme assay
Assay type: biochemical
Settings: Human C1s enzyme assay of Example 3; read-out: IC50 (Stars)
pIC50: −log10 of the molar value.
measured-quantity: pIC50

// below: answered molecules
C[C@@H](NC(=O)[C@@H]1C[C@]2(C)C[C@@H]2N1C(=O)CNC(=O)c1ccc(Oc2ccc(F)cc2)cc1)c1ccc(C(=N)N)s1	> 7.00
C[C@@H](NC(=O)[C@@H]1CC2(CN1C(=O)CNC(=O)c1ccc3c(c1)-c1ccccc1C3(F)F)OCCO2)c1cc(-c2ncco2)cs1	< 6.00
C[C@@H](NC(=O)[C@@H]1C[C@@H](OC(F)F)CN1C(=O)CNC(=O)c1ccc(Oc2ccc(F)cc2)cc1)c1cc(C(=N)N)cs1	> 7.00
N=C(N)c1csc(CNC(=O)[C@@H]2CC3(CN2C(=O)CNC(=O)c2ccc(-c4cc(F)ccc4F)cc2)OCCO3)c1	> 7.00

# evaluate next
Per the records, this molecule ( C[C@@H](NC(=O)[C@@H]1C[C@](F)(COCCNC(=O)CC[C@H](NC(=O)CCCCCCCCCCCCCCCCC(=O)O)C(=O)O)CN1C(=O)CNC(=O)c1ccc(Oc2ccc(F)cc2)cc1)c1cc(C(=N)N)cs1 ) has pIC50 equal to > 7.00

----------
Target: Human complement C1s enzyme (Homo sapiens (Human), UniProt P09871)
Test: Human C1s enzyme assay
Type: biochemical
Settings: Human complement C1s enzyme 1.16 nM, substrate Z-L-Lys-SBzl 100 μM, assay of Example 3; read-out: IC50 (Stars)
pIC50: −log10 of the molar value.
measured-quantity: pIC50

C[C@@H](NC(=O)[C@@H]1C[C@]2(COCCCN)C[C@@H]2N1C(=O)CNC(=O)c1ccc2c(c1)-c1ccccc1C2(F)F)c1cc(C(=N)N)cs1	> 7.00
CC(=O)Nc1csc(CNC(=O)[C@@H]2CC3(CN2C(=O)CNC(=O)c2ccc(Oc4ccc(F)cc4)cc2)OCCO3)c1	< 6.00

Now look at this entry.
Entry NC(=O)Nc1csc(CNC(=O)[C@@H]2CC3(CN2C(=O)CNC(=O)c2ccc(Oc4ccc(F)cc4)cc2)OCCO3)c1 , pIC50 reported as < 6.00

----------
A collection of molecules and their measured pIC50
Target: Human complement C1s enzyme (Homo sapiens (Human), UniProt P09871)
Experiment: Human C1s enzyme assay
Type: biochemical
Details: Human complement C1s enzyme 1.16 nM, substrate Z-L-Lys-SBzl 100 μM, assay of Example 3; read-out: IC50 (Stars)
pIC50: −log10 of the molar value.

N=C(N)c1csc(CNC(=O)[C@@H]2CC3(CN2C(=O)CNC(=O)c2ccc(-c4cc(Cl)cc(Cl)c4)cc2)OCCO3)c1	> 7.00
N=C(N)c1csc(CNC(=O)[C@@H]2CC3(CN2C(=O)CNC(=O)c2ccc(-c4ccc(F)cc4F)o2)OCCO3)c1	> 7.00
NCC(=O)Nc1csc(CNC(=O)[C@@H]2CC3(CN2C(=O)CNC(=O)c2ccc(Oc4ccc(F)cc4)cc2)OCCO3)c1	6.00 to 7.00

Item: C[C@@H](NC(=O)[C@@H]1CC(=C(F)F)CN1C(=O)CNC(=O)c1ccc2c(c1)-c1ccccc1C2(F)F)c1cc(C(=N)N)cs1 | pIC50: > 7.00

// recorded pIC50 for C[C@@H](NC(=O)[C@@H]1C[C@@H](OC(F)F)CN1C(=O)CNC(=O)c1ccc2c(c1)S(=O)(=O)c1ccccc1-2)c1cc(C(=N)N)cs1 : > 7.00

----------
Biological target: Human complement C1s enzyme (Homo sapiens (Human), UniProt P09871)
Assay: Human C1s enzyme assay
Assay type: biochemical
Settings: Human C1s enzyme assay of Example 3; read-out: IC50 (Stars)
measured-quantity: IC50

C[C@@H](NC(=O)[C@@H]1CC2(CN1C(=O)CNC(=O)c1cc(F)c(-c3ccc(F)cc3)cn1)OCCO2)c1cc(C(=N)N)cs1	< 100 nM
C[C@@H](NC(=O)[C@@H]1C[C@@H](S(C)(=O)=O)CN1C(=O)CNC(=O)c1ccc2c(c1)-c1ccccc1C2(F)F)c1cc(C(=N)N)cs1	< 100 nM
O=C(NCC(=O)N1CC2(C[C@H]1C(=O)NCc1cc(-c3cc(C(F)(F)F)[nH]n3)cs1)OCCO2)c1ccc(Oc2ccc(F)cc2)cc1	> 1000 nM
C[C@@H](NC(=O)[C@@H]1CC2(CN1C(=O)CNC(=O)c1ccc3c(c1)-c1ccccc1C3(F)F)OCCO2)c1cc(-c2c[nH]cn2)cs1	100 to 1000 nM
C[C@@H](NC(=O)[C@@H]1CC2(CN1C(=O)CNC(=O)c1ccc3c(c1)-c1ccccc1C3(F)F)OCCO2)c1ccc(-c2ncc[nH]2)s1	> 1000 nM

Looking up C[C@@H](NC(=O)[C@@H]1C[C@@H](OC(F)(F)F)CN1C(=O)CNC(=O)c1ccc2c(c1)-c1ccccc1C2(F)F)c1cc(C(=N)N)cs1 , I found its IC50 recorded as < 100 nM

Data point: C[C@@H](NC(=O)[C@@H]1CC2(CN1C(=O)CNC(=O)c1ccc3c(c1)C(F)(F)c1ccccc1-3)OCCO2)c1cc(C(=N)N)cs1 ; IC50 = < 100 nM

Measured IC50 of Cc1cc(C(=O)NCC(=O)N2[C@H]3C[C@@]3(C)C[C@H]2C(=O)N[C@H](C)c2cc(C(=N)N)cs2)ccc1Oc1ccccc1 : < 100 nM

The molecule listed as N=C(N)c1csc(CNC(=O)[C@@H]2CC3(CN2C(=O)CNC(=O)c2ccc(-c4ccccc4)c(F)c2)OCCO3)c1 has a reported IC50 of < 100 nM

Recorded result, C[C@H](O)[C@H](O)[C@@H](O)[C@@H](O)CNCC(=O)NCCOC[C@@]12C[C@@H]1N(C(=O)CNC(=O)c1ccc(Oc3ccc(F)cc3)cc1)[C@H](C(=O)N[C@H](C)c1cc(C(=N)N)cs1)C2 , IC50: < 100 nM
